- assay-target: Kinesin-like protein KIF11 (Homo sapiens)
- test-method-notes: Inhibition of kinesin spindle protein
For each record, write down the corresponding IC50.
One number for each entry, in nM.

Each compound below has a reported value. Please supply its IC50.
1. CC(=O)C1=NN2c3cc(F)ccc3OC[C@H]2[C@@]1(CCCN1CCNCC1)c1ccccc1
2. CC(=O)C1=NN2c3cc(F)ccc3OC[C@H]2[C@@]1(CCCN1CCNC(=O)CC1)c1ccccc1
3. CC(=O)C1=NN2c3cc(F)ccc3OC[C@H]2[C@@]1(CCCN1CCN(C(C)=O)CC1)c1ccccc1
4. CC(=O)C1=NN2c3cc(Cl)ccc3OC[C@H]2[C@@]1(CCCN(C)C)c1ccccc1
5. CC(=O)C1=NN2c3cc(C)ccc3OC[C@H]2[C@@]1(CCCN(C)C)c1ccccc1
6. CC(=O)C1=NN2c3cc(F)ccc3OC[C@H]2[C@@]1(CCCN1CCC(=O)N(C)CC1)c1ccccc1
7. CC(=O)C1=NN2c3cc(F)ccc3OC[C@H]2[C@@]1(CCCN(C)C)c1ccccc1
8. CC(=O)C1=NN2c3cc(C)ccc3OC[C@H]2[C@@]1(CCCN1CCOCC1)c1ccccc1

A.
4.3
1.5
1.6
1
1.8
0.9
1.6
1

====

- assay-target: UniProtKB P52732
- Sequence (P52732 whole entry): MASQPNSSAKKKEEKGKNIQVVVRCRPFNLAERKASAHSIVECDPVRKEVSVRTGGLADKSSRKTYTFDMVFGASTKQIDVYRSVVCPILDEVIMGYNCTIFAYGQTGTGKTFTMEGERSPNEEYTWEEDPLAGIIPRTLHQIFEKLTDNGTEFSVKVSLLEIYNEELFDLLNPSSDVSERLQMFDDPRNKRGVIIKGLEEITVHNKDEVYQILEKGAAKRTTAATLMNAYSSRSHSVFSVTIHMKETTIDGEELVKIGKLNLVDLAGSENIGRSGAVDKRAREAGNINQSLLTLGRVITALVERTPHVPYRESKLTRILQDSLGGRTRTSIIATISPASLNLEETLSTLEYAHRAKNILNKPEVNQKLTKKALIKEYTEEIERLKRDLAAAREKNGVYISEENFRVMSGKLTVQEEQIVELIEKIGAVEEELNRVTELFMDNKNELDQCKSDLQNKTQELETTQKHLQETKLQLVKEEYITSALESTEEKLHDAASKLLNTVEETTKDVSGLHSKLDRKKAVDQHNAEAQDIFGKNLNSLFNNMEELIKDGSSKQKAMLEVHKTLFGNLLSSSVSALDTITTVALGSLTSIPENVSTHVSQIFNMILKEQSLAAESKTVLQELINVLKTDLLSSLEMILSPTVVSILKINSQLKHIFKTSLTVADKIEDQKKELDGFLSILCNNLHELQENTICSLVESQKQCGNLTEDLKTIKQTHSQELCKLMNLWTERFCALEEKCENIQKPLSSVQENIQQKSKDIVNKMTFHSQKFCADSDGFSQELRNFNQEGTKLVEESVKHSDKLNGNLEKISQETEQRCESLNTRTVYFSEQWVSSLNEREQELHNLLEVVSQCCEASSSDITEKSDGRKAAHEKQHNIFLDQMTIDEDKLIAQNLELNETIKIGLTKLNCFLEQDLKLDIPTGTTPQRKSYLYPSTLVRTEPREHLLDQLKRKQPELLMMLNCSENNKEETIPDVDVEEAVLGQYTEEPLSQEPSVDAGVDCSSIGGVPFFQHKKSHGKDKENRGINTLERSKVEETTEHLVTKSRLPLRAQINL
Assignment: determine reported pIC50 for the given molecules.
Give bare numbers, as −log10 of the molar value.

Example molecules with recorded pIC50:
molecule=CC(=O)C1=NN2c3cc(F)ccc3OC[C@H]2[C@@]1(CCCN1CCOCC1)c1ccccc1 val=9.40
molecule=CC(=O)C1=NN2c3cc(F)ccc3OC[C@H]2[C@@]1(CCCO)c1ccccc1 val=8.28
molecule=CC(=O)C1=NN2c3cc(F)ccc3OC[C@H]2[C@@]1(CCCN)c1ccccc1 val=9.30

Parameters: items (list). Returns: pIC50 for each item.
1. CC(=O)C1=NN2c3cc(Cl)ccc3OC[C@H]2C1(CCCN1CCOCC1)c1ccccc1 (mixture of isomers)
2. CC(=O)C1=NN2c3cc(Cl)ccc3OC[C@H]2[C@@]1(CCCN1CCN(C(C)=O)CC1)c1ccccc1

A.
[8.74, 9.00]

====

- test-method-notes: Half life in dog at 0.25 mg/kg, iv
- Type: ADME, organism-based, Canis lupus familiaris
- Parameters: dose 0.25 mg/kg, route intravenous
- run-conditions: in vivo
parameter: half-life
Units required after the number.

Worked cases, answers included:
line_notation=CC(=O)C1=NN2c3cc(F)ccc3OC[C@H]2[C@@]1(CCCN1CCNCC1)c1ccccc1 val="3.5 h"
line_notation=CC(=O)C1=NN2c3cc(F)ccc3OC[C@H]2[C@@]1(CCCN(C)C)c1ccccc1 val="5.7 h"
line_notation=CC(=O)C1=NN2c3cc(C)ccc3OC[C@H]2[C@@]1(CCCN(C)C)c1ccccc1 val="8.3 h"
line_notation=CC(=O)C1=NN2c3cc(F)ccc3OC[C@H]2[C@@]1(CCCN1CCC(=O)N(C)CC1)c1ccccc1 val="3.9 h"

Please state, for each entry, its recorded half-life.
1. CC(=O)C1=NN2c3cc(F)ccc3OC[C@H]2[C@@]1(CCCN1CCN(C(C)=O)CC1)c1ccccc1
2. CC(=O)C1=NN2c3cc(F)ccc3OC[C@H]2[C@@]1(CCCN1CCNC(=O)CC1)c1ccccc1

A.
1. 5.6 h
2. 2.4 h

====

- test-method-notes: Solubility at pH 4
- Type: physicochemical
- run-conditions: buffer
parameter: solubility

Q. Requested field: solubility. Item: CC(=O)C1=NN2c3cc(F)ccc3OC[C@H]2[C@@]1(CCCN1CCN(C(C)=O)CC1)c1ccccc1
A. > 4000 µg/mL

====

- assay-target: UniProt Q12809
- Sequence (Q12809 whole entry): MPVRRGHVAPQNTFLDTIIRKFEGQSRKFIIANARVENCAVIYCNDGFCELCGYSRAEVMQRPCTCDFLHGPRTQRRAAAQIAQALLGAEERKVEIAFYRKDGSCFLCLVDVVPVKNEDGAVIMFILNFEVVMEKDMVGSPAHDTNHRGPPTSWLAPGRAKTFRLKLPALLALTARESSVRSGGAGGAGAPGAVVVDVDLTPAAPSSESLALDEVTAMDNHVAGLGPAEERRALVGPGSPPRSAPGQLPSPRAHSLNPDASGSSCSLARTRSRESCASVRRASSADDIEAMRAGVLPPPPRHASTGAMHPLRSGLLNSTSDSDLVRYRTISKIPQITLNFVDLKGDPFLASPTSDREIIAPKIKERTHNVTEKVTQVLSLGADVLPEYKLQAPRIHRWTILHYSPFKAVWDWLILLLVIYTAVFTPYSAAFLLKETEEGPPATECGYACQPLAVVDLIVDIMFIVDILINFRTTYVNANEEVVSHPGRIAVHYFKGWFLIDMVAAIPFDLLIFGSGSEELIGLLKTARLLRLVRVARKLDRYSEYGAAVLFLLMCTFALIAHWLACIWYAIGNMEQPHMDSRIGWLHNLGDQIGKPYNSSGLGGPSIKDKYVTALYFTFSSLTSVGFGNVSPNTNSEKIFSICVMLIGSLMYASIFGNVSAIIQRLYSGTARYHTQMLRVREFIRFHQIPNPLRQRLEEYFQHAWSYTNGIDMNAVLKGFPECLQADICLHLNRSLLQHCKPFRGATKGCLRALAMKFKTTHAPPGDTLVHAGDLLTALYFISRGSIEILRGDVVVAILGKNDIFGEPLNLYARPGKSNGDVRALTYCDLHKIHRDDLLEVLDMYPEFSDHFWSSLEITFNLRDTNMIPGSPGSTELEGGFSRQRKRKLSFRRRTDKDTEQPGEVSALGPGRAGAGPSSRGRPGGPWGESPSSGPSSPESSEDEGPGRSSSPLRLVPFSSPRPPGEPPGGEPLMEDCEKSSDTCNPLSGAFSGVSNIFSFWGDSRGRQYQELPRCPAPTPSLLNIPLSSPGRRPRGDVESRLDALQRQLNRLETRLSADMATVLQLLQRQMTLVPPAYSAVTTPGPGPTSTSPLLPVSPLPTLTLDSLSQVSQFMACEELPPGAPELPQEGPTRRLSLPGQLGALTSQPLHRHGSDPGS
- test-method-notes: Inhibition of hERG expressed in HEK cells
parameter: log10 IC50 (log10 of the value in µM)
Give log10 of IC50, with IC50 taken in µM.

Check out these entries, answers already filled in.
compound=CC(=O)C1=NN2c3cc(F)ccc3OC[C@H]2[C@@]1(CCCN1CCNCC1)c1ccccc1 val=0.66
compound=CC(=O)C1=NN2c3cc(Cl)ccc3OC[C@H]2[C@@]1(CCCN1CCN(C(C)=O)CC1)c1ccccc1 val=0.75
compound=CC(=O)C1=NN2c3cc(F)ccc3OC[C@H]2[C@@]1(CCCO)c1ccccc1 val=1.26
compound=CC(=O)C1=NN2c3cc(C)ccc3OC[C@H]2[C@@]1(CCCN1CCOCC1)c1ccccc1 val=0.80
compound=CC(=O)C1=NN2c3cc(F)ccc3OC[C@H]2[C@@]1(CCCN(C)C)c1ccccc1 val=0.77

Go through the list and state log10 IC50 for each entry.
1. CC(=O)C1=NN2c3cc(C)ccc3OC[C@H]2[C@@]1(CCCN(C)C)c1ccccc1
2. CC(=O)C1=NN2c3cc(F)ccc3OC[C@H]2[C@@]1(CCCN1CCNC(=O)CC1)c1ccccc1
3. CC(=O)C1=NN2c3cc(Cl)ccc3OC[C@H]2C1(CCCN1CCOCC1)c1ccccc1 (mixture of isomers)
4. CC(=O)C1=NN2c3cc(F)ccc3OC[C@H]2[C@@]1(CCCN)c1ccccc1
5. CC(=O)C1=NN2c3cc(F)ccc3OC[C@H]2[C@@]1(CCCN1CCOCC1)c1ccccc1
6. CC(=O)C1=NN2c3cc(F)ccc3OC[C@H]2[C@@]1(CCCN1CCC(=O)N(C)CC1)c1ccccc1

A.
[0.38, 1.23, 0.52, -0.03, 0.79, 0.98]

====

- System: A2780
- test-method-notes: Mitotic arrest in human A2780 cells assessed as G2/M block after 16 hrs
- Format: functional, cell-based
- run-conditions: A2780, 16 h
parameter: pEC50
Give bare numbers, as −log10 of the molar value.

Study these solved cases before continuing.
compound=CC(=O)C1=NN2c3cc(F)ccc3OC[C@H]2[C@@]1(CCCN1CCNCC1)c1ccccc1 val=8.30
compound=CC(=O)C1=NN2c3cc(F)ccc3OC[C@H]2[C@@]1(CCCN1CCN(C(C)=O)CC1)c1ccccc1 val=8.30
compound=CC(=O)C1=NN2c3cc(C)ccc3OC[C@H]2[C@@]1(CCCN(C)C)c1ccccc1 val=8.19
compound=CC(=O)C1=NN2c3cc(F)ccc3OC[C@H]2[C@@]1(CCCN1CCNC(=O)CC1)c1ccccc1 val=8.16
compound=CC(=O)C1=NN2c3cc(F)ccc3OC[C@H]2[C@@]1(CCCN1CCC(=O)N(C)CC1)c1ccccc1 val=8.32
compound="CC(=O)C1=NN2c3cc(Cl)ccc3OC[C@H]2C1(CCCN1CCOCC1)c1ccccc1 (mixture of isomers)" val=7.89

Dear colleague, could you please provide pEC50 for the compounds listed below?
1. CC(=O)C1=NN2c3cc(F)ccc3OC[C@H]2[C@@]1(CCCN(C)C)c1ccccc1
2. CC(=O)C1=NN2c3cc(Cl)ccc3OC[C@H]2[C@@]1(CCCN(C)C)c1ccccc1
3. CC(=O)C1=NN2c3cc(C)ccc3OC[C@H]2[C@@]1(CCCN1CCOCC1)c1ccccc1
4. CC(=O)C1=NN2c3cc(F)ccc3OC[C@H]2[C@@]1(CCCO)c1ccccc1
5. CC(=O)C1=NN2c3cc(Cl)ccc3OC[C@H]2[C@@]1(CCCN1CCN(C(C)=O)CC1)c1ccccc1
6. CC(=O)C1=NN2c3cc(F)ccc3OC[C@H]2[C@@]1(CCCN)c1ccccc1
7. CC(=O)C1=NN2c3cc(F)ccc3OC[C@H]2[C@@]1(CCCN1CCOCC1)c1ccccc1

A.
[8.13, 8.32, 7.96, 7.96, 8.05, 8.60, 8.36]
